# study-system: T1, transforming growth factor-beta 1 (TGF-β1) (UniProt P01137 279-390)
# T1 construct: also called TGFb1; TGFB1
# T1 sequence (P01137 279-390 limits assumed): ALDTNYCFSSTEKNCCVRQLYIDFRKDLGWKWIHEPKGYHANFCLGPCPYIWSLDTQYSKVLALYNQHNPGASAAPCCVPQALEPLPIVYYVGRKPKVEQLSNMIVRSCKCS
# assay-name: ELISA, peptide on streptavidin plate, ligand 100 ng/ml
Ends that are not written are not given here.
Quick rule: ELISA OD450 of at least 0.03 OD450 means Condition met, below that means Condition not met.

binder | category-label
LDQYVKFDAVSGDYYPIIYFG (also: biotinylated, site not given here, also called peptide 14) [CLPTM1 peptide fragment of SEQ ID NO: 21] | Condition met
AAAQEADGARSAVVAAGGGSG (also: biotinylated, site not given here) [CLPTM1 peptide fragment of SEQ ID NO: 8] | Condition not met
STKSPWNFLGDELYEQSDEEG (also: biotinylated, site not given here) [CLPTM1 peptide fragment of SEQ ID NO: 24] | Condition not met
FTDFNATSALFWEQHDLVYGG (also: biotinylated, site not given here) [CLPTM1 peptide fragment of SEQ ID NO: 31] | Condition met
MIKRAEDYGPVEVISHWHPNG (also: biotinylated, site not given here) [CLPTM1 peptide fragment of SEQ ID NO: 19] | Condition not met
